- target or test system: Lysosomal alpha-glucosidase (Rattus norvegicus) (UniProt Q6P7A9)
- Sequence (Q6P7A9 whole entry): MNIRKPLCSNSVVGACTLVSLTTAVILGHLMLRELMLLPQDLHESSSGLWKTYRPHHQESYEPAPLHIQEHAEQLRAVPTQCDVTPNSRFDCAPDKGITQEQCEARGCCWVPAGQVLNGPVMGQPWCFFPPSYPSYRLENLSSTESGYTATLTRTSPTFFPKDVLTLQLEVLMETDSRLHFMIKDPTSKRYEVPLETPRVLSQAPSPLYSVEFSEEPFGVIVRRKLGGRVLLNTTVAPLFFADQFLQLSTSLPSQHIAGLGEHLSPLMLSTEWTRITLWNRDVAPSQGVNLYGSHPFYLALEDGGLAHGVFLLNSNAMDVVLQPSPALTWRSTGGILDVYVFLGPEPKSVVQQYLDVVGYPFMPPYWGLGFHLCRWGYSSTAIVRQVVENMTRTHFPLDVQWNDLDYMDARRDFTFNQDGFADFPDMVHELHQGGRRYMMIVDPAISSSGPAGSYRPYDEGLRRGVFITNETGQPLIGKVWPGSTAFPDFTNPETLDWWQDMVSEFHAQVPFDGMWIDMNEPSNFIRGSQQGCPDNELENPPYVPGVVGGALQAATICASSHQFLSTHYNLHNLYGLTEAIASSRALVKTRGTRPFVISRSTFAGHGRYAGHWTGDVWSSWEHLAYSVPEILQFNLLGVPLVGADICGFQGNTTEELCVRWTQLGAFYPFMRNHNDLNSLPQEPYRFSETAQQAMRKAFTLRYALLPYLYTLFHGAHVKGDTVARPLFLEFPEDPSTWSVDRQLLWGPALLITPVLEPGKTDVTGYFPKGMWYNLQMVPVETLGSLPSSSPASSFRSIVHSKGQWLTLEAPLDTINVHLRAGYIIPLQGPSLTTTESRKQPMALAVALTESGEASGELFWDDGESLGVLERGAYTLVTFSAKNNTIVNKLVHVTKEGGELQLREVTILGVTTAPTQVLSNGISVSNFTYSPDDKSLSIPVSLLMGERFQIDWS
- experimental context: 100 ug/ml
- Description: Inhibition of rat small intestinal maltase at 100 ug/ml after 30 mins by glucose-oxidase method
Decision: inhibition >= 40% yields met, all other cases yield not met.

O=S(=O)([O-])O[C@@H]([C@@H](O)[C@H](O)[C@H](O)CO)[C@H](O)C[S@+]1C[C@@H](O)[C@H](O)[C@H]1CO	met
O=S(=O)([O-])O[C@H]([C@@H](O)[C@@H](O)[C@@H](O)CO)[C@H](O)C[S@+]1C[C@@H](O)[C@H](O)[C@H]1CO	met
O=S(=O)([O-])O[C@H]([C@@H](O)[C@@H](O)[C@H](O)CO)[C@H](O)C[S@+]1C[C@@H](O)[C@H](O)[C@H]1CO (mixture of isomers)	not met
O=S(=O)([O-])O[C@H]([C@@H](O)[C@H](O)[C@@H](O)CO)[C@H](O)C[S@+]1C[C@@H](O)[C@H](O)[C@H]1CO	not met

API: the following record is the query input.
Incoming: Say whether `O=S(=O)([O-])O[C@@H]([C@@H](O)[C@H](O)[C@@H](O)CO)[C@H](O)C[S@+]1C[C@@H](O)[C@H](O)[C@H]1CO` shows inhibition of 40% or more.
Outgoing: met

---

- target or test system: Sucrase-isomaltase, intestinal (Rattus norvegicus)
- Sequence (P23739 1-1013 limits assumed): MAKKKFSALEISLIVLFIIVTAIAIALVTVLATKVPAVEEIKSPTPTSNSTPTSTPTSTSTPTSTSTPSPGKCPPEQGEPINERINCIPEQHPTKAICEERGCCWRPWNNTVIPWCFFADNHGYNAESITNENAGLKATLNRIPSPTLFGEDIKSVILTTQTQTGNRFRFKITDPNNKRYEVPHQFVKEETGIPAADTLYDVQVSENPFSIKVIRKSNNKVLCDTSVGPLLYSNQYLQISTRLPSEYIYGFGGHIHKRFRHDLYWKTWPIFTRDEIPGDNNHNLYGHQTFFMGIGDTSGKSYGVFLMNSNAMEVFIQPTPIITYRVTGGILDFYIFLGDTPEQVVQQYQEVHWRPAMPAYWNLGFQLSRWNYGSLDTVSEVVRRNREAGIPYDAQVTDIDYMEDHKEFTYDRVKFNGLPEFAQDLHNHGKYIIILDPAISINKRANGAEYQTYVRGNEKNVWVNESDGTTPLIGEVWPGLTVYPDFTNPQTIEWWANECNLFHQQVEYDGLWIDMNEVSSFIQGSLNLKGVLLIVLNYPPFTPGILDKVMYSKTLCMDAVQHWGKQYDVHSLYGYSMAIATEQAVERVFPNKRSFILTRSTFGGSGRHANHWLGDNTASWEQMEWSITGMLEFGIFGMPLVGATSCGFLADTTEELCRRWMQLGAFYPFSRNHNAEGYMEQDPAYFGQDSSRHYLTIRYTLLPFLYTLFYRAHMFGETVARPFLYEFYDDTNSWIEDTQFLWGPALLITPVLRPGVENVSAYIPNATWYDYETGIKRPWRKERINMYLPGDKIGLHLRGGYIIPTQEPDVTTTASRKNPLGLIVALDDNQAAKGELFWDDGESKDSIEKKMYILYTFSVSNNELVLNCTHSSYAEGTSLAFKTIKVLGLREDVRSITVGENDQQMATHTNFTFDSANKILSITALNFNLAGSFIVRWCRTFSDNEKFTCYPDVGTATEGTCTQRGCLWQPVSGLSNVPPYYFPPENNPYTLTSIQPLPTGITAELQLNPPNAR
- Sequence (P23739 1014-1841 limits assumed): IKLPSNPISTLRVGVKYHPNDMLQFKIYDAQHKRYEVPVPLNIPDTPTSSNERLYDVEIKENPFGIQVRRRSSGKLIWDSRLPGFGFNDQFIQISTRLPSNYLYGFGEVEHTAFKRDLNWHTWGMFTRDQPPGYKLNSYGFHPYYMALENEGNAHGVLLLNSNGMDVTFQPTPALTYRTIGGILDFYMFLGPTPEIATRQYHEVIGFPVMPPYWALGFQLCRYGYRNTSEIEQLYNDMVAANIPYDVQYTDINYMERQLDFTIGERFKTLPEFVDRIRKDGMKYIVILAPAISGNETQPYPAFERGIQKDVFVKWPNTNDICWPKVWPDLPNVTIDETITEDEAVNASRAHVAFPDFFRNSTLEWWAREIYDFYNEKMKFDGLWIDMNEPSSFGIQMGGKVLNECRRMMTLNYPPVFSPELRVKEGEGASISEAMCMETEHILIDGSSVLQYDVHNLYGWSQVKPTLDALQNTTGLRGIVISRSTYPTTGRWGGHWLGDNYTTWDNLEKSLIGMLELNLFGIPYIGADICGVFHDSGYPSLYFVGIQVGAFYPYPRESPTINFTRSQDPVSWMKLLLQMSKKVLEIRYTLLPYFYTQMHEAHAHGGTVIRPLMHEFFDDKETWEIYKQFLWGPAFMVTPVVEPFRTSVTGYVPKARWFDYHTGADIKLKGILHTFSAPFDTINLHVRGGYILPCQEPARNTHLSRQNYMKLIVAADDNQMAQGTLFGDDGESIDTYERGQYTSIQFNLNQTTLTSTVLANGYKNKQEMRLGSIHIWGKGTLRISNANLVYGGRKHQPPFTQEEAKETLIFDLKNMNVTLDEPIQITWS
- assay details: Inhibition of rat small intestinal sucrase after 30 mins by glucose-oxidase method
property measured: IC50

Record excerpt, results attached:
O=S(=O)([O-])O[C@H]([C@@H](O)[C@@H](O)[C@H](O)CO)[C@H](O)C[S@+]1C[C@@H](O)[C@H](O)[C@H]1CO (mixture of isomers)	> 236 µM
O=S(=O)([O-])O[C@H]([C@@H](O)[C@@H](O)[C@@H](O)CO)[C@H](O)C[S@+]1C[C@@H](O)[C@H](O)[C@H]1CO	> 236 µM

Incoming: Could you tell me which IC50 is on file for `O=S(=O)([O-])O[C@H]([C@@H](O)[C@H](O)[C@@H](O)CO)[C@H](O)C[S@+]1C[C@@H](O)[C@H](O)[C@H]1CO` ?
Outgoing: > 236 µM
